- System: phospho-akt (Thr308) in PC-3 cells
- method: Inhibition of phospho-akt (Thr308) in PC-3 cells, MSD phospho-akt 308 ELISA kit
- Type: cell-based
- measurement-conditions: Homo sapiens; inhibition of P308 Akt in PC-3 cells using MSD, 2 hours, no serum; read-out: EC50
measurement-name: EC50

[
  {
    "compound": "N#Cc1cnc(NCc2ccc(Oc3cc(N)ncn3)cc2)c(C(=O)NCc2ccc(F)c(F)c2)c1 [Example 314]",
    "EC50": "> 10000 nM"
  }
]

Pending compound:
Lab note: compound C[C@@H](Nc1ncc(C(F)(F)F)cc1C(=O)Nc1ccc(F)cc1)c1ccc(-c2cnc3[nH]nc(N)c3n2)cc1 [Example 412] tested on phospho-akt (Thr308) in PC-3 cells; recorded EC50 was 1000 to 10000 nM

* * *

Overview of reported pEC50 across a group of molecules:
- Tested on: phospho-akt (Thr308) in PC-3 cells
- method: Inhibition of phospho-akt (Thr308) in PC-3 cells, MSD phospho-akt 308 ELISA kit
- Type: cell-based
- measurement-conditions: Homo sapiens; inhibition of P308 Akt in PC-3 cells using MSD, 2 hours, no serum; read-out: EC50
pEC50: −log10 of the molar value.

Measured pEC50, CC(C)n1cc(-c2ccc(CNc3ncc(C(F)(F)F)cc3C(=O)Nc3ccc(F)cc3)cc2)c2c(N)ncnc21 : > 6.00

Measured pEC50, Nc1n[nH]c2ncc(-c3ccc(CNc4ncc(C(F)(F)F)cc4C(=O)N[C@H](CO)c4ccc(F)cc4)cc3)cc12 : < 5.00

* * *

- Test system: phospho-akt (Thr308) in PC-3 cells
- method: Inhibition of phospho-akt (Thr308) in PC-3 cells, MSD phospho-akt 308 ELISA kit
- Format: cell-based
- measurement-conditions: Homo sapiens; inhibition of P308 Akt in PC-3 cells using MSD, 2 hours, no serum; read-out: EC50
pEC50: −log10 of the molar value.
measurement-name: pEC50

[
  {
    "compound": "C[C@H](NC(=O)c1cc(C#N)cnc1NCc1ccc(-c2cnc3[nH]c(=O)[nH]c3c2)c(F)c1)c1ccc(F)cc1 [Example 127]",
    "test-system": "phospho-akt (Thr308) in PC-3 cells",
    "pEC50": "> 6.00"
  },
  {
    "compound": "C[C@H](NC(=O)c1cc(C#N)cnc1NCc1ccc(-c2cnc(N)c(CCCO)n2)cc1)c1ccc(F)cc1 [Example 91]",
    "test-system": "phospho-akt (Thr308) in PC-3 cells",
    "pEC50": "> 6.00"
  }
]

Pending compound:
Measured pEC50, C[C@H](NC(=O)c1cc(C#N)cnc1NCc1ccc(-c2ccc(NCCO)nc2)cc1)c1ccc(F)cc1 [Example 222] : 5.00 to 6.00
